Tested on: IGROV-ET
experiment_notes: SRB colorimetric assay of cell growth and viability, IGROV-ET
Assay type: cell-based, human
measurement_context: 48 hours exposure, SRB; read-out: LC50 IGROV-ET
Method: The finality of this assay is to interrupt the growth of a “in vitro” tumor cell culture by means a continued exhibition of the cells to the sample to be testing. […] Cells are seeded in 96 well microtiter plates, at 5×10^3 cells per well in aliquots of 195 μL medium, and they are allowed to attach to the plate surface by growing in drug free medium for 18 hours. […] Optical densities are read on a automated spectrophotometric plate reader at a single wavelength of 490 nm. […]
Where a SMILES comes first, the peptide text is derived from it. Bridges are numbered along the chain shown (N, C = ends). [ ]: non-standard residue; d: D form. The star is where a group is joined. d(aIle) = CC[C@H](C)[C@@H](N)C(=O)O; d(aThr) = C[C@@H](O)[C@@H](N)C(=O)O; Hexanoyl(5-Me) = CC(C)CCCC(=O)*; Orn = NCCC[C@H](N)C(=O)O; Dhb = C/C=C(\N)C(=O)O
metric: CC50 (nM)
Return type: number; implicit unit nM.

Sample C/C=C1\NC(=O)[C@H](Cc2c[nH]c3ccccc23)NC(=O)[C@@H](C(C)C)NC(=O)[C@@H]([C@@H](C)CC)NC(=O)[C@H](NC(=O)[C@H](NC(=O)[C@H](CCCN)NC(=O)[C@H]2CCCN2C(=O)[C@H](NC(=O)[C@@H](NC(=O)[C@@H](NC(=O)[C@H](NC(=O)CCCC(C)C)C(C)C)[C@@H](C)O)C(C)C)C(C)C)[C@@H](C)CC)[C@@H](C)OC(=O)[C@H](C(C)C)NC1=O [Compound 68, [Trp^3]-KF] ({Hexanoyl(5-Me)}-[dV]TV[dV][dP][Orn][d(aIle)][d(aThr)][d(aIle)][dV]W[Dhb]V; ester 8-C) ; CC50 observed: 499

====

System: LoVo
experiment_notes: SRB colorimetric assay of cell growth and viability, LoVo
Assay type: cell-based, human
measurement_context: LOVO; 48 hours exposure
Assign TGI LOVO to each entry below.
Answer in Molar, number only, no unit symbol.

C/C=C1\NC(=O)[C@H](Cc2ccccc2)NC(=O)[C@@H](C(C)C)NC(=O)[C@@H]([C@@H](C)CC)NC(=O)[C@H](NC(=O)[C@H](NC(=O)[C@H](CCCN)NC(=O)[C@H]2CCCN2C(=O)[C@H](NC(=O)[C@@H](NC(=O)[C@@H](NC(=O)[C@@H](C(C)C)N(CCCCCCC)CCCCCCC)[C@@H](C)O)C(C)C)C(C)C)[C@@H](C)CC)[C@@H](C)OC(=O)[C@H](C(C)C)NC1=O [Compound 98] yielded TGI LOVO of 6.40E−06

Measured TGI LOVO, C/C=C1\NC(=O)[C@H](Cc2ccccc2Cl)NC(=O)[C@@H](C(C)C)NC(=O)[C@@H]([C@@H](C)CC)NC(=O)[C@H](NC(=O)[C@H](NC(=O)[C@H](CCCN)NC(=O)[C@H]2CCCN2C(=O)[C@H](NC(=O)[C@@H](NC(=O)[C@@H](NC(=O)[C@H](NC(=O)CCCC(C)C)C(C)C)[C@@H](C)O)C(C)C)C(C)C)[C@@H](C)CC)[C@@H](C)OC(=O)[C@H](C(C)C)NC1=O [Compound 81, [Phe(2-Cl)^3]-KF] : 1.72E−07

Entry C/C=C1\NC(=O)[C@H](Cc2ccccc2)NC(=O)[C@@H](C(C)C)NC(=O)[C@@H]([C@@H](C)CC)NC(=O)[C@H](NC(=O)[C@H](NC(=O)[C@H](CCCN)NC(=O)[C@@H]2CC[C@H](c3ccccc3)N2C(=O)[C@H](NC(=O)[C@@H](NC(=O)[C@@H](NC(=O)[C@H](NC(=O)CC[C@@H](C)CC)C(C)C)[C@@H](C)O)C(C)C)C(C)C)[C@@H](C)CC)[C@@H](C)OC(=O)[C@H](C(C)C)NC1=O [Compound 62, [(5R)-Ph-Pro^9, (4S)-MeHex^14]-KF] — recorded TGI LOVO = 6.43E−06

// C/C=C1\NC(=O)[C@H](Cc2ccccc2)NC(=O)[C@@H](C(C)C)NC(=O)[C@@H]([C@@H](C)CC)NC(=O)[C@H](NC(=O)[C@H](NC(=O)[C@H](CCCN)NC(=O)[C@H]2CCCCN2C(=O)[C@H](NC(=O)[C@@H](NC(=O)[C@@H](NC(=O)[C@H](NC(=O)CC[C@@H](C)CC)C(C)C)[C@@H](C)O)C(C)C)C(C)C)[C@@H](C)CC)[C@@H](C)OC(=O)[C@H](C(C)C)NC1=O [Compound 60, [D-Pip^9, (4S)-MeHex^14]-KF] : TGI LOVO value = 2.44E−06

Documented TGI LOVO of C/C=C1\NC(=O)[C@H](Cc2ccccc2)NC(=O)[C@@H](C(C)C)NC(=O)[C@@H]([C@@H](C)CC)NC(=O)[C@H](NC(=O)[C@H](NC(=O)[C@H](CCCN)NC(=O)[C@@H]2CCCN2C(=O)[C@H](NC(=O)[C@@H](NC(=O)[C@@H](NC(=O)[C@H](NC(=O)CC[C@@H](C)CC)C(C)C)[C@@H](C)O)C(C)C)C(C)C)[C@@H](C)CC)[C@@H](C)OC(=O)[C@H](C(C)C)NC1=O [Compound 59, [Pro^9, (4S)-MeHex^14]-KF] : 6.76E−06

The origin of these recorded values is patent US20070117743A1.
